Source listed as patent US20040006236A1.

# Target of assay: LFA-1 binding to immobilized ICAM-1 (Homo sapiens, UniProt P05107+P20701)
# Construct: made in house; host or cells: transfected 293 cells (LFA-1)
# Sequence (P20701 26-1170): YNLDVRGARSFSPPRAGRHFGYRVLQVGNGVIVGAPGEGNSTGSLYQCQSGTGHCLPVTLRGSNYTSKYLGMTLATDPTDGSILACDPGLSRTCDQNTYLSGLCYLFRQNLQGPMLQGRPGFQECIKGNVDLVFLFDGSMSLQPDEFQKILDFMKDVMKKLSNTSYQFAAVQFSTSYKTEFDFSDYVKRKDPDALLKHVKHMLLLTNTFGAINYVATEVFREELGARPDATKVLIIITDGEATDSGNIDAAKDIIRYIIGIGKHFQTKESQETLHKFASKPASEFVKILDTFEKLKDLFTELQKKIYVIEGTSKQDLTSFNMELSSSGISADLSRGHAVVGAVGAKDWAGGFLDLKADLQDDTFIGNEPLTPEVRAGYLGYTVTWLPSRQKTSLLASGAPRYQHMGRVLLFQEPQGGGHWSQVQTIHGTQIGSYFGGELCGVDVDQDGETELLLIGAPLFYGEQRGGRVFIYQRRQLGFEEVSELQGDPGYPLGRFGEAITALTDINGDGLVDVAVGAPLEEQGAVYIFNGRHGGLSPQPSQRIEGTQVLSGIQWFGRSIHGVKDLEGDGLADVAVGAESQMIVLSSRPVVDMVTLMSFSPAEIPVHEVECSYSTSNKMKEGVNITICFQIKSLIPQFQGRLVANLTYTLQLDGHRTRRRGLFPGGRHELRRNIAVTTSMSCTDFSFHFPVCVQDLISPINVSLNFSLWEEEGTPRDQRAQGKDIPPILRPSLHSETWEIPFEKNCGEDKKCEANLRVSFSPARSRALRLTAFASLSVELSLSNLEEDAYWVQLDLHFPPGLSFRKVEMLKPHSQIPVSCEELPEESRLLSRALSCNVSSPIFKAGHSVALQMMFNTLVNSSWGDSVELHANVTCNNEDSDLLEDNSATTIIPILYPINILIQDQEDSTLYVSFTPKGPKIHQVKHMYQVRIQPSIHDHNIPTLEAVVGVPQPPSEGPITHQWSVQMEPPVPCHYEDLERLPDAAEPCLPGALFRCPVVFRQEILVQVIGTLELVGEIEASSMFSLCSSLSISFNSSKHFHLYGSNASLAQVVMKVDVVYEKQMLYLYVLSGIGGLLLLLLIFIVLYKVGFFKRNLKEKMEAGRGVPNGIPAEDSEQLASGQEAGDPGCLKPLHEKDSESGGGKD
# Sequence (P05107 23-769): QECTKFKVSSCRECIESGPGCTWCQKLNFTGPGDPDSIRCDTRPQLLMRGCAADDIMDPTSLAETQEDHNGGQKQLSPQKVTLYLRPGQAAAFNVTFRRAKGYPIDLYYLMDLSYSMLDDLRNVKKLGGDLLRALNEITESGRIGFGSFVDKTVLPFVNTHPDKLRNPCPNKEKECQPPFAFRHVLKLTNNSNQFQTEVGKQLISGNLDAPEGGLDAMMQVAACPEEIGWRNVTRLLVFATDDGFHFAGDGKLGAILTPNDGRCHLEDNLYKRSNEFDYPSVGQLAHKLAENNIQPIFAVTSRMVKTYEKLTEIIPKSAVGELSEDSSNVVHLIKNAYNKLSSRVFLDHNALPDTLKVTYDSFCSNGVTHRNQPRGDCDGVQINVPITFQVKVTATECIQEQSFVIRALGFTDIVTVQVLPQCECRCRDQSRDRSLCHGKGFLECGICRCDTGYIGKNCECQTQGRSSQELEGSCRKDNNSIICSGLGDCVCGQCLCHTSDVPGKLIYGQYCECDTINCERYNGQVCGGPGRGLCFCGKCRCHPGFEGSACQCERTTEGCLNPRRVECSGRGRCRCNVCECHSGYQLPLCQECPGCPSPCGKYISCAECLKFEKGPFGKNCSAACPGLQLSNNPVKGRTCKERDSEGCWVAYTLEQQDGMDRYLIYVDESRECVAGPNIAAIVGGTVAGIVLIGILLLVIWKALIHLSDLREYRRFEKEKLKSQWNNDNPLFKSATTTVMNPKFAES
# Experimental details: LFA-1/ICAM-1 protein-protein assay (solid-phase ELISA)
# Conditions: read-out: LFA-1/ICAM-1 Protein-Protein Assay IC50
Provide the reported pIC50 of each item.
// scale note: pIC50 = -log10(conc_M); give the bare number

[Q] Looking for the measured pIC50 of "CN[C@@H](C)C(=O)NC[C@H](NC(=O)c1ccc(C(=O)NCc2cccc(O)c2)cc1Cl)C(=O)O" , can you help?
[A] 8.10

[Q] Looking for the measured pIC50 of "O=C(NC[C@H](NC(=O)c1ccc(C(=O)[C@H]2C[C@@H]2c2ccccc2)cc1Cl)C(=O)O)c1cccs1" , can you help?
[A] 7.72

[Q] Looking for the measured pIC50 of "O=C(C[n+]1csc2ccccc21)NC[C@H](NC(=O)c1ccc(C(=O)NCc2cccc(O)c2)cc1Cl)C(=O)O" , can you help?
[A] 8.23

[Q] Looking for the measured pIC50 of "N[C@H]1CC[C@@H](C(=O)NC[C@H](NC(=O)c2ccc(C(=O)NCc3cccc(O)c3)cc2Cl)C(=O)O)CC1" , can you help?
[A] 8.34

[Q] Looking for the measured pIC50 of "O=C(CCc1ccccc1)NC[C@H](NC(=O)c1ccc(C(=O)NCc2cccc(O)c2)cc1Cl)C(=O)O" , can you help?
[A] 8.82

[Q] Looking for the measured pIC50 of "CC(C)C(=O)NC[C@H](NC(=O)c1ccc(C(=O)NCc2cccc(O)c2)cc1Cl)C(=O)O" , can you help?
[A] 8.72

[Q] Looking for the measured pIC50 of "O=C(NC[C@H](NC(=O)c1ccc(/C=C/Cc2ccccc2)cc1Cl)C(=O)O)c1cccs1" , can you help?
[A] 8.11

---

# System: cell-surface Mac-1 adhesion to immobilized fibrinogen (HL-60 cells)
# Experimental details: Mac-1/Fibrinogen cell-based screening assay
# Parameters: species or system human
# Conditions: Homo sapiens, HL-60, HL-60 cells; read-out: Mac-1/Fgn Cell based Assay IC50
Provide the reported pIC50 of each item.
// scale note: pIC50 = -log10(conc_M); give the bare number

[Q] Looking for the measured pIC50 of "O=C(NCc1cccc(O)c1)c1ccc(C(=O)N[C@@H](CNC(=O)c2ccco2)C(=O)O)c(Cl)c1" , can you help?
[A] 7.12

[Q] Looking for the measured pIC50 of "O=C(NCc1cccc2[nH]ncc12)c1ccc(C(=O)N[C@@H](CNC(=O)c2cccs2)C(=O)O)c(Cl)c1" , can you help?
[A] 7.74

[Q] Looking for the measured pIC50 of "Cc1ccsc1C(=O)NC[C@H](NC(=O)c1ccc(C(=O)NCc2cccc(O)c2)cc1Cl)C(=O)O" , can you help?
[A] 7.44

[Q] Looking for the measured pIC50 of O=C(NC[C@H](NC(=O)c1ccc(C(O)CCc2cccc(O)c2)cc1Cl)C(=O)O)c1cccs1 (mixture of isomers) , can you help?
[A] 7.19

[Q] Looking for the measured pIC50 of "O=C(NCc1cccc(O)c1)c1ccc(C(=O)N[C@@H](CNC(=O)c2csnn2)C(=O)O)c(Cl)c1" , can you help?
[A] 7.51

[Q] Looking for the measured pIC50 of "O=C(NCc1cccc(O)c1)c1ccc(C(=O)N[C@@H](CNC(=O)C2(c3ccccc3)CCCC2)C(=O)O)c(Cl)c1" , can you help?
[A] 6.91

[Q] Looking for the measured pIC50 of "O=C(CSc1ccncc1)NC[C@H](NC(=O)c1ccc(C(=O)NCc2cccc(O)c2)cc1Cl)C(=O)O" , can you help?
[A] 6.15

[Q] Looking for the measured pIC50 of "CC(C)(N)C(=O)NC[C@H](NC(=O)c1ccc(C(=O)NCc2cccc(O)c2)cc1Cl)C(=O)O" , can you help?
[A] 6.79

[Q] Looking for the measured pIC50 of "O=C(NCc1cccc(O)c1)c1ccc(C(=O)N[C@@H](CNC(=O)c2sccc2Cl)C(=O)O)c(Cl)c1" , can you help?
[A] 7.19

[Q] Looking for the measured pIC50 of "O=C(NCc1cccc(O)c1)c1ccc(C(=O)N[C@@H](CNC(=O)c2ccccc2[N+](=O)[O-])C(=O)O)c(Cl)c1" , can you help?
[A] 7.01

[Q] Looking for the measured pIC50 of "O=C(CCN1CCCCC1)NC[C@H](NC(=O)c1ccc(C(=O)NCc2cccc(O)c2)cc1Cl)C(=O)O" , can you help?
[A] 6.79

[Q] Looking for the measured pIC50 of "O=C(NCc1cccc(O)c1)c1ccc(C(=O)N[C@@H](CNC(=O)c2cccc(Br)c2)C(=O)O)c(Cl)c1" , can you help?
[A] 7.10

[Q] Looking for the measured pIC50 of "O=C(NCc1cccc(O)c1)c1ccc(C(=O)N[C@@H](CNC(=O)c2cc([N+](=O)[O-])[nH]n2)C(=O)O)c(Cl)c1" , can you help?
[A] 5.91

[Q] Looking for the measured pIC50 of "O=C(NCc1cccc(O)c1)c1ccc(C(=O)N[C@@H](CNC(=O)c2ccc[nH]2)C(=O)O)c(Cl)c1" , can you help?
[A] 7.34

[Q] Looking for the measured pIC50 of "Cc1noc(C)c1C(=O)NC[C@H](NC(=O)c1ccc(C(=O)NCc2cccc(O)c2)cc1Cl)C(=O)O" , can you help?
[A] 6.09

[Q] Looking for the measured pIC50 of "O=C(NCc1cccc(O)c1)c1ccc(C(=O)N[C@@H](CNC(=O)c2cc(F)c(F)cc2F)C(=O)O)c(Cl)c1" , can you help?
[A] 6.88

[Q] Looking for the measured pIC50 of "Cc1cc(C(=O)N[C@H](C)c2cccc3ccccc23)ccc1C(=O)N[C@@H](CNC(=O)c1cccs1)C(=O)O" , can you help?
[A] 7.23

[Q] Looking for the measured pIC50 of "O=C(NCc1cccc(O)c1)c1ccc(C(=O)N[C@@H](CNC(=O)c2ccc(Cl)s2)C(=O)O)c(Cl)c1" , can you help?
[A] 7.47

[Q] Looking for the measured pIC50 of "Cc1ccccc1C(=O)NC[C@H](NC(=O)c1ccc(C(=O)NCc2cccc(O)c2)cc1Cl)C(=O)O" , can you help?
[A] 7.08

[Q] Looking for the measured pIC50 of "CC1(C(=O)NC[C@H](NC(=O)c2ccc(C(=O)NCc3cccc(O)c3)cc2Cl)C(=O)O)CCCCC1" , can you help?
[A] 6.82

[Q] Looking for the measured pIC50 of "O=C(NCc1cccc(O)c1)c1ccc(C(=O)N[C@@H](CNC(=O)c2cccc(I)c2)C(=O)O)c(Cl)c1" , can you help?
[A] 7.49

[Q] Looking for the measured pIC50 of "NC[C@H]1CC[C@H](C(=O)NC[C@H](NC(=O)c2ccc(C(=O)NCc3cccc(O)c3)cc2Cl)C(=O)O)CC1" , can you help?
[A] 7.13

[Q] Looking for the measured pIC50 of "O=C(NCc1cccc(O)c1)c1ccc(C(=O)N[C@@H](CNC(=O)c2cccs2)C(=O)O)c(Cl)c1" , can you help?
[A] 8.06

[Q] Looking for the measured pIC50 of "O=C(NCc1cccc(O)c1)c1ccc(C(=O)N[C@@H](CNC(=O)c2cccc([N+](=O)[O-])c2)C(=O)O)c(Cl)c1" , can you help?
[A] 7.33

[Q] Looking for the measured pIC50 of "O=C(NCc1cccc(O)c1)c1ccc(C(=O)N[C@@H](CNC(=O)c2ccc3ccccc3c2)C(=O)O)c(Cl)c1" , can you help?
[A] 6.50

[Q] Looking for the measured pIC50 of "O=C(NCc1cccc(O)c1)c1cc(Cl)c(C(=O)N[C@@H](CNC(=O)c2cccc(Cl)c2)C(=O)O)c(Cl)c1" , can you help?
[A] 7.70

[Q] Looking for the measured pIC50 of "Cc1cc(C(=O)N[C@H](C)c2cccc3ccccc23)ccc1C(=O)N[C@@H](CNC(=O)c1ccccc1)C(=O)O" , can you help?
[A] 7.03

[Q] Looking for the measured pIC50 of "Nc1cccc(C(=O)NC[C@H](NC(=O)c2ccc(C(=O)NCc3cccc(O)c3)cc2Cl)C(=O)O)c1" , can you help?
[A] 7.80

---

Provide the reported IC50 of each item.
# Test system: cell-surface Mac-1 adhesion to immobilized fibrinogen (HL-60 cells)
# Experimental details: Mac-1/Fibrinogen cell-based screening assay
# Design: species or system human
# Conditions: Homo sapiens, HL-60, HL-60 cells; read-out: Mac-1/Fgn Cell based Assay IC50
# Procedure: Cellular Mac-1/Fibrinogen antagonist activity, defined as the ability to inhibit cell-surface Mac-1 adhesion to immobilized fibrinogen, was quantitated by a cell based assay. Human fibrinogen was coated onto 96 well microtiter plates (1 μg in 100 μL TBS) overnight at 4° C. The plates were then blocked with 150 μL of 10% polyvinyl pyrrolidone (PVP) in TBS for 1 h at 37° C. Plates were washed 3 times (150 μL each) with TBS. […]
Respond with the bare value in nM.

[Q] Looking for the measured IC50 of "O=C(NCc1cccc(O)c1)c1ccc(C(=O)N[C@@H](CNC(=O)c2ccccc2)C(=O)O)c(Cl)c1" , can you help?
[A] 74

[Q] Looking for the measured IC50 of "O=C(NCc1cccc(O)c1)c1ccc(C(=O)N[C@@H](CNC(=O)c2cc(Br)c(Br)s2)C(=O)O)c(Cl)c1" , can you help?
[A] 70

[Q] Looking for the measured IC50 of "O=C(NCc1cccc(O)c1)c1ccc(C(=O)N[C@@H](CNC(=O)c2c3c(nc4ccccc24)CCCC3)C(=O)O)c(Cl)c1" , can you help?
[A] 4850
